# measured_on: CDK9/cyclin T (Homo sapiens, UniProt P50750)
# Sequence (P50750 whole entry): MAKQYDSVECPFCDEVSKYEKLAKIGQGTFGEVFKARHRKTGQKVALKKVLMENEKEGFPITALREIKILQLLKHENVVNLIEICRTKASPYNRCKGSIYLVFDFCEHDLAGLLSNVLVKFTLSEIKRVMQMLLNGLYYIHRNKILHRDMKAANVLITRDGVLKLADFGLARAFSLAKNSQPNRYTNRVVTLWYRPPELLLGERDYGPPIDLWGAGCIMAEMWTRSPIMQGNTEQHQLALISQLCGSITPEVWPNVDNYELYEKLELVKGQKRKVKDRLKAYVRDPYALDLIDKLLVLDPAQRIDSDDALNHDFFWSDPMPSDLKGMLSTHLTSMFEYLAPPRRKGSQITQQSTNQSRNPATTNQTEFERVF
# Sequence (O60563 whole entry partner): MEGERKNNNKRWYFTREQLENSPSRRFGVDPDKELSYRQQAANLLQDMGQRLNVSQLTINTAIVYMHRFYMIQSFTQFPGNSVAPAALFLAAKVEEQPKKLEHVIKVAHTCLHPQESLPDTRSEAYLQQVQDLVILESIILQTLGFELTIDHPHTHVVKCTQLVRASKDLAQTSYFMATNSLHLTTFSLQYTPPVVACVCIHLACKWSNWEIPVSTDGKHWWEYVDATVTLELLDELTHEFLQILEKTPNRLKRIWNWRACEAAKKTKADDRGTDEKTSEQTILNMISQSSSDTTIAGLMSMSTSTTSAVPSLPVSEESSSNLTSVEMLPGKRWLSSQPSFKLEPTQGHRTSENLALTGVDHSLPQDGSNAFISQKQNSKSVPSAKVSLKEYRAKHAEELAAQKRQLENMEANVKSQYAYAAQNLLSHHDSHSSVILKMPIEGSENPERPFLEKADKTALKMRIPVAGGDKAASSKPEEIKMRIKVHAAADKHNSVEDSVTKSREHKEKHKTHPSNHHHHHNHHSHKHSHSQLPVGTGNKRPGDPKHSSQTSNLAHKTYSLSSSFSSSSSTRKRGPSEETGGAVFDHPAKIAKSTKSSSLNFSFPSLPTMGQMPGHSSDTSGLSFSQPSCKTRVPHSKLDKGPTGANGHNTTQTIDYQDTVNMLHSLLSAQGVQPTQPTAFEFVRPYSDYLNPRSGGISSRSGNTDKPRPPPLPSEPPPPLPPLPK
# assay_info: In vitro luminescent CDK9 kinase assay (Kinase-Glo MAX)
# Type: biochemical
# experimental_context: mean ± SD; read-out: CDK9 IC50
# Description: In vitro luminescent CDK9 kinase assay was performed as reported previously using Kinase- Glo® MAX as a detection reagent. […] The chemiluminescence was measured microplate reader, and IC50 values were calculated using Prism 8.0 (GraphPad Software, San Diego, CA, USA).
Binarize IC50 at 0.5 µM; below is yes, at or above is no.

Check out these entries, answers already filled in.
-- ask hey, is IC50 for CCOc1ccc(NC(=O)CSc2nc3ccccc3c(=O)n2CCc2ccc(S(N)(=O)=O)cc2)cc1 [Compound 7] lower than 0.5 µM or not?
-- reply yes

-- ask I wonder whether Cc1ccc2nc(-c3cccc(Br)c3)n(N)c(=O)c2c1 [Compound 27] has IC50 below 0.5 µM. Can you tell?
-- reply no

-- ask Given CC(=O)c1ccc(NC(=O)CSc2nc3ccccc3c(=O)n2CCc2ccc(S(N)(=O)=O)cc2)cc1 [Compound 5] , is recorded IC50 strictly lower than 0.5 µM?
-- reply no

-- ask Problem: For the molecule NS(=O)(=O)c1ccc(CCn2c(SCC(=O)Nc3ccc(Br)cc3)nc3ccccc3c2=O)cc1 [Compound 9] , is IC50 under 0.5 µM?
-- reply yes

-- ask Identify whether the molecule Cc1ccc2nc(-c3cccc(Br)c3)[nH]c(=S)c2c1 [Compound 26] records IC50 below 0.5 µM.
-- reply yes

-- ask # strict comparison: is reported IC50 < 0.5 µM? input = CC(Sc1nc2ccccc2c(=O)n1CCc1ccc(S(N)(=O)=O)cc1)C(=O)Nc1ccccc1 (centres unmarked) [Compound 15]
-- reply yes

Continuing:
-- ask Identify whether the molecule NS(=O)(=O)c1ccc(CCn2c(SCC(=O)NCc3ccc(F)cc3)nc3ccccc3c2=O)cc1 [Compound 12] records IC50 below 0.5 µM.
-- reply yes

-- ask Does Cc1ccc2nc(-c3cccc(Br)c3)n(O)c(=O)c2c1 [Compound 28] have IC50 strictly under 0.5 µM?
-- reply yes

-- ask Hi there! Is IC50 for Cc1ccc(NC(=O)CSc2nc3ccccc3c(=O)n2CCc2ccc(S(N)(=O)=O)cc2)cc1 [Compound 4] below 0.5 µM, do you know?
-- reply no
